Experiment: Concentrations of ZEN, α-ZEL and β-ZEL in colon tissue (immunoaffinity extraction, LC-MS/MS)
Type: in vivo, pre-pubertal gilts
Conditions: female, pig, descending colon tissue, po; 40 μg ZEN/kg BW orally daily; week 5
Value type: concentration at 5 week of exposure (ng/g)
Numbers only, in ng/g.

// query Which concentration at 5 week of exposure is reported for this molecule? `C[C@H]1CCCC(=O)CCC/C=C/c2cc(O)cc(O)c2C(=O)O1`
// result 177
